Data origin: ChEMBL document CHEMBL3822362

- target-of-assay: Delta-type opioid receptor (Rattus norvegicus, UniProt P33533)
- Sequence (P33533 whole entry): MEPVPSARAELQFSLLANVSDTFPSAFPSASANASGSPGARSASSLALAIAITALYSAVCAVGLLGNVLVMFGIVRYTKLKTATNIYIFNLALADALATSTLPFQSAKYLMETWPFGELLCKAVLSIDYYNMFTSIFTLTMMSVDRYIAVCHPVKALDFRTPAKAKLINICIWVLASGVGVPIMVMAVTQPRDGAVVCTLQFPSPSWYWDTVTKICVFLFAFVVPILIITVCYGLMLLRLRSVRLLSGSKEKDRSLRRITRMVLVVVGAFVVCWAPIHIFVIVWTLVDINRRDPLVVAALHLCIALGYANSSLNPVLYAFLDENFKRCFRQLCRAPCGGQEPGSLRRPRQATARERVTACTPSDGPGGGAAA
- assay-protocol: Displacement of [3H]diprenorphine from rat DOR transfected in rat C6 cell membranes after 1 hr by liquid scintillation counting
recorded-endpoint: Ki
Record the result as number plus unit.

[in] Request - read-out Ki | tested on Delta-type opioid receptor (Rattus norvegicus, UniProt P33533) | compound `CCOC(=O)CN1CC[C@@H](NC(=O)[C@@H](N)Cc2c(C)cc(O)cc2C)c2cc(Cc3ccccc3)ccc21`
[out] 0.58 nM

[in] # returns recorded Ki (system: Delta-type opioid receptor (Rattus norvegicus, UniProt P33533)) for `Cc1cc(O)cc(C)c1C[C@H](N)C(=O)N[C@@H]1CCN(C(=O)C(C)C)c2ccc(Cc3ccccc3)cc21`
[out] 0.53 nM

[in] Test system Delta-type opioid receptor (Rattus norvegicus, UniProt P33533); read-out Ki; what value for `Cc1cc(O)cc(C)c1C[C@H](N)C(=O)N[C@@H]1CCN(CC(N)=O)c2ccc(Cc3ccccc3)cc21` ?
[out] 2 nM

[in] Find the measured Ki: item `COC(=O)N1CC[C@@H](NC(=O)[C@@H](N)Cc2c(C)cc(O)cc2C)c2cc(Cc3ccc4ccccc4c3)ccc21` , target or system Delta-type opioid receptor (Rattus norvegicus, UniProt P33533).
[out] 1 nM

====

I'd appreciate it if you could supply Emax values for the items below.
- target-of-assay: Delta-type opioid receptor (Rattus norvegicus) (UniProt P33533)
- Sequence (P33533 whole entry): as above
- assay-protocol: Agonist activity at rat DOR transfected in rat C6 cell membranes at 10 uM after 1 hr by [35S]GTPgammaS assay relative to DPDPE
- Format: functional

[in] Which Emax is reported for this compound? `Cc1cc(O)cc(C)c1C[C@H](N)C(=O)N[C@@H]1CCN(CC(N)=O)c2ccc(Cc3ccccc3)cc21`
[out] 34%

[in] Could you tell me which Emax is on file for `Cc1cc(O)cc(C)c1C[C@H](N)C(=O)N[C@@H]1CCN(C(=O)C2CCC2)c2ccc(Cc3ccccc3)cc21` ?
[out] 58%

[in] Data request, read-out Emax, for `COC(=O)N1CC[C@@H](NC(=O)[C@@H](N)Cc2c(C)cc(O)cc2C)c2cc(Cc3ccccc3)ccc21`
[out] 40%

====

Let's go through some Ki measurements on Kappa-type opioid receptor (Homo sapiens, UniProt P41145) together.
Sequence (P41145 whole entry): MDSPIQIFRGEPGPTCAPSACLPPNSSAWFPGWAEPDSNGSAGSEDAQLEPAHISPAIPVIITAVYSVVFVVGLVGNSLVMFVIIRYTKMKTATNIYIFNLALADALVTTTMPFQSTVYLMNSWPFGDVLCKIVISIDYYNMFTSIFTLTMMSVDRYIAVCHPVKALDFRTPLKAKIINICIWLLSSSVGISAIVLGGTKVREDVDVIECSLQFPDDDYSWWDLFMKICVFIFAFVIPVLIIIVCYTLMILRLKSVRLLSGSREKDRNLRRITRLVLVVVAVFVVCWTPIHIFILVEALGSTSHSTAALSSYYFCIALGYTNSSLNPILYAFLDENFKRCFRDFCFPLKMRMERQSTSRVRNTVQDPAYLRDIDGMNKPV
Express it in nM; write the number only.

[in] // lookup Ki for `CCOC(=O)CN1CC[C@@H](NC(=O)[C@@H](N)Cc2c(C)cc(O)cc2C)c2cc(Cc3ccccc3)ccc21`
[out] 15

[in] Quick one: Ki for `Cc1cc(O)cc(C)c1C[C@H](N)C(=O)N[C@@H]1CCN(C(=O)c2ccccc2)c2ccc(Cc3ccccc3)cc21` ?
[out] 39

[in] Suppose we examine the compound `COCC(=O)N1CC[C@@H](NC(=O)[C@@H](N)Cc2c(C)cc(O)cc2C)c2cc(Cc3ccccc3)ccc21` ; what Ki value has been reported?
[out] 34

[in] So what does the record say about Ki for `COC(=O)N1CC[C@@H](NC(=O)[C@@H](N)Cc2c(C)cc(O)cc2C)c2cc(Cc3ccc4ccccc4c3)ccc21` ?
[out] 190

[in] Value lookup for Ki; key = `Cc1cc(O)cc(C)c1C[C@H](N)C(=O)N[C@@H]1CCN(CC(=O)O)c2ccc(Cc3ccccc3)cc21`
[out] 280

[in] Fill in the blank: the reported Ki of `CCCC(=O)N1CC[C@@H](NC(=O)[C@@H](N)Cc2c(C)cc(O)cc2C)c2cc(Cc3ccc4ccccc4c3)ccc21` is ____.
[out] 64

[in] Would you mind telling me what Ki value was observed for `Cc1cc(O)cc(C)c1C[C@H](N)C(=O)N[C@@H]1CCN(C(=O)C2CC2)c2ccc(Cc3ccccc3)cc21` ?
[out] 25

[in] Which measured Ki value corresponds to `Cc1cc(O)cc(C)c1C[C@H](N)C(=O)N[C@@H]1CCN(CC(N)=O)c2ccc(Cc3ccccc3)cc21` ?
[out] 4.3

[in] Reported Ki for `CCC(=O)N1CC[C@@H](NC(=O)[C@@H](N)Cc2c(C)cc(O)cc2C)c2cc(Cc3ccccc3)ccc21` : what is it?
[out] 40

[in] Consider the compound shown here: `CCC(=O)N1CC[C@@H](NC(=O)[C@@H](N)Cc2c(C)cc(O)cc2C)c2cc(Cc3ccc4ccccc4c3)ccc21` What is its recorded Ki?
[out] 58

[in] Quick check: Ki of `COC(=O)N1CC[C@@H](NC(=O)[C@@H](N)Cc2c(C)cc(O)cc2C)c2cc(Cc3ccccc3)ccc21` ?
[out] 29

[in] Looking for the measured Ki of `Cc1cc(O)cc(C)c1C[C@H](N)C(=O)N[C@@H]1CCN(C(=O)C(C)C)c2ccc(Cc3ccccc3)cc21` , can you help?
[out] 76

[in] Would you kindly share the measured Ki for `Cc1cc(O)cc(C)c1C[C@H](N)C(=O)N[C@@H]1CCN(C(=O)C2CCC2)c2ccc(Cc3ccccc3)cc21` ?
[out] 56

[in] Report Ki for `CCCC(=O)N1CC[C@@H](NC(=O)[C@@H](N)Cc2c(C)cc(O)cc2C)c2cc(Cc3ccccc3)ccc21` please.
[out] 50
